# procedure summary: Lipophilicity, log D of the compound at pH 7.4
# Type: physicochemical
# protocol conditions: buffer
For each of the compounds below, state its logD.
Numbers only.

I have 4 compounds here; please give me logD for each one.
1. CC(C)N(C(=O)C1CCCc2c1c1ccccc1n2CCF)C(C)C (racemic)
2. CN(C)C(=O)C1CCCc2c1c1ccccc1n2CCF (racemic)
3. CCN(CC)C(=O)C1CCCc2c1c1cc(OC)c(F)cc1n2CCF (racemic)
4. O=C(NCc1ccccc1)C1CCCc2c1c1ccccc1n2CCF (racemic)

1: 2.28; 2: 1.7; 3: 2.38; 4: 2.47

###

# study target: Translocator protein (Rattus norvegicus, UniProt P16257)
# Sequence (P16257 whole entry, looked up): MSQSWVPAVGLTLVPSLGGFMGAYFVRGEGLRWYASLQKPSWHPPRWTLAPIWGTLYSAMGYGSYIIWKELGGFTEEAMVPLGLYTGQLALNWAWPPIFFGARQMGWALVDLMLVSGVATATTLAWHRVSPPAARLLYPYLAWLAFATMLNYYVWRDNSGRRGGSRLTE
For each of the compounds below, state its pKi.
Answers are plain numbers, as −log10 of the molar value.

See these solved cases before continuing.
compound | pKi
O=C(C1CCCc2c1c1ccccc1n2CCF)N1CCCC1 (racemic) | 6.30
CCN(CC)C(=O)C1CCCc2c1c1ccccc1n2CCF (racemic) | 8.27
O=C(C1CCCc2c1c1ccccc1n2CCF)N1CCCCC1 (racemic) | 7.74
CCN(CC)C(=O)C1CCCc2c1c1cc(F)ccc1n2CCF (racemic) | 8.42

I have 6 compounds here; please give me pKi for each one.
1. O=C(C1CCCc2c1c1ccccc1n2CCF)N1CCCCCC1 (racemic)
2. CCN(CC)C(=O)C1CCCc2c1c1cc(OC)ccc1n2CCF (racemic)
3. CCCN(CCC)C(=O)C1CCCc2c1c1ccccc1n2CCF (racemic)
4. CCCCCCN(CCCCCC)C(=O)C1CCCc2c1c1ccccc1n2CCF (racemic)
5. CCN(CC)C(=O)C1CCCc2c1c1ccc(OC)cc1n2CCF (racemic)
6. CCN(CC)C(=O)C1CCCc2c1c1c(OC)cc(OC)cc1n2CCF (racemic)

1: 8.36; 2: 8.72; 3: 9.15; 4: 9.15; 5: 8.26; 6: 8.36

###

For each of the compounds below, state its Ratio.
# procedure summary: Ratio of drug uptake in olfactory bulb to striatum in Sprague-Dawley rat at 1 to 3 MBq, iv after 30 mins by gamma counting
# protocol conditions: in vivo, 0.5 h
Numbers only.

compound | Ratio
CCCN(CCC)C(=O)C1CCCc2c1c1ccccc1n2CC[18F] (configuration not stated) | 2.2
CCCCCCN(CCCCCC)C(=O)C1CCCc2c1c1ccccc1n2CC[18F] (configuration not stated) | 1.11
CCCN(C)C(=O)C1CCCc2c1c1ccccc1n2CC[18F] (configuration not stated) | 2.5
O=C(C1CCCc2c1c1ccccc1n2CC[18F])N1CCCCCC1 (configuration not stated) | 4.13

I have 7 compounds here; please give me Ratio for each one.
1. CCOc1ccc2c(c1)c1c(n2CC[18F])CCCC1C(=O)N(CC)CC (configuration not stated)
2. CC(C)N(C(=O)C1CCCc2c1c1ccccc1n2CC[18F])C(C)C (configuration not stated)
3. CCCN(CC)C(=O)C1CCCc2c1c1ccccc1n2CC[18F] (configuration not stated)
4. CCN(CC)C(=O)C1CCCc2c1c1cc(OC)ccc1n2CC[18F] (configuration not stated)
5. CCN(CC)C(=O)C1CCCc2c1c1ccc(F)cc1n2CC[18F] (configuration not stated)
6. CCN(CC)C(=O)C1Sc2ccccc2-c2c1c1ccccc1n2CCF (configuration not stated)
7. CCN(CC)C(=O)C1CCCc2c1c1ccccc1n2CC[18F] (configuration not stated)

1: 2.5; 2: 2.78; 3: 2.09; 4: 3.88; 5: 1.92; 6: 1.42; 7: 3.25
